Recorded kon by entry
Target: T1, RlpA-Δ32 (P. aeruginosa PAO1, UniProt Q9X6V6 32-342)
T1 construct: source: E. coli BL21-star (DE3), purified (Ni-NTA)
T1 sequence: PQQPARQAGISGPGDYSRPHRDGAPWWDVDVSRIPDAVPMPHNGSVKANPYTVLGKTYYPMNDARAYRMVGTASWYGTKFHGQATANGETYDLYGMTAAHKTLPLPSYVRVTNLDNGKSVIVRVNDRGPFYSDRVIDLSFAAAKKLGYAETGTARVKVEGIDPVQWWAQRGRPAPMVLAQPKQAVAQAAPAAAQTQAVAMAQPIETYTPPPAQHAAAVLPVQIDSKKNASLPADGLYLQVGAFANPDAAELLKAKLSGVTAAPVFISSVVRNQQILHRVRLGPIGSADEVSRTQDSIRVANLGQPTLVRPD
Assay: SPR
Conditions: both partners purified
Return type: number; implicit unit M⁻¹ s⁻¹.

Below are worked cases with known answers.
| binder | kon [M⁻¹ s⁻¹] |
| --- | --- |
| PilA (natural protein, source: E. coli, purified (Ni-NTA or Strep-Tactin)) PQYQNYVARSEGASALATINPLKTTVEESLSRGIAGSKIKIGTTASTATETYVGVEPDANKLGVIAVAIEDSGAGDITFTFQTGTSSPKNATKVITLNRTADGVWACKSTQDPMFTPKGCDN | 1100 |
| PA2854 (natural protein, source: E. coli, purified (Ni-NTA or Strep-Tactin)) LELQLPPPGEDVVGQVQVIKAKYEDTFADLGEQYNLGYSEMVAANPGVDPWLPGVGTEVIIPTRFVLPPGPREGVVINLAEYRLYYYPKGQNVVHTYPLGIGREGWGSPIANTRITAKTKDPAWYPPASIRAEHAADGDPLPTVVPPGPDNPLGPYKLTLGVPGYLIHGSNKKFGIGTRTSHGCFRMYNADVTHLFSMISVGTSVRIINEPYKFGVSNGKVYLEAHTPLNDHGDPSVVDKHTAVINTLLKRDDLAKRIQLNWDVVREVVASEDGVPVEIAQESAPAMTATVDSDPTQLTP | 4900 |

Now turn to the next binder.
Annotate the binder SltB1 (enzyme, P. aeruginosa PAO1, UniProt Q9HX24 1-340, looked up) GDYDGSPQVAEFVSEMTRDYGFAGEQLMGLFRDVNRKQSILDAISRPAERVKQWKEYRPIFISDARISRGVDFWNKHAEDLARAEKEYGVPAEIIVSIIGVETFFGRNTGSYRVMDALSTLGFDYPPRADFFRKELREFLLLAREQQVDPLSLTGSYAGAMGLPQFMPSSFRAYAVDFDGDGHINIWSDPTDAIGSVASYFKQHGWVTGEPVVSVAEINDESAESAVTRGVDPTMSLGELRARGWRTHDALRDDQKVTAMRFVGDKGIEYWVGLPNFYVITRYNRSAMYAMAVYQLAGEIARARGAH with its measured kon.
330
